# test target: HKU5-3CL^pro (Bat coronavirus HKU5 (BtCoV) (BtCoV/HKU5/2004), UniProt P0C6W4)
# Sequence (P0C6W4 3339-3644 limits assumed): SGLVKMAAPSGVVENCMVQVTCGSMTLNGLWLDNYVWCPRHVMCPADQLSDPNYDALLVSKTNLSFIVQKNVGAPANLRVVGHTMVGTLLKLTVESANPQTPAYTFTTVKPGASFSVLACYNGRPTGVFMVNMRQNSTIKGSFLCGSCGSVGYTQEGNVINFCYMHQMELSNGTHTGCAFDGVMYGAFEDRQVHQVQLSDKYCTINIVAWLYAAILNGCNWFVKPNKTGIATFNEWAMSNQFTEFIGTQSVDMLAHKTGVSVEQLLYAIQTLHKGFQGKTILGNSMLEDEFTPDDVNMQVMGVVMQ
readout: IC50 (µM)
Give just the number in µM; leave the unit off.

// known answers, use as guide
{"compound": "O=C(Nc1ccc(N(C(=O)Cn2nnc3ccccc32)C(C(=O)NC2CCCC2)c2ccsc2)cc1)C1CC1 (stereo not drawn) [Compound 33]", "meas value": 0.6}
{"compound": "CC(C)C(=O)Nc1ccc(N(C(=O)Cn2nnc3ccccc32)C(C(=O)NCc2ccccc2)c2cccnc2)cc1 (stereo not drawn) [Compound 15]", "meas value": 9.6}
{"compound": "CC(C)(C)CNC(=O)C(c1cccnc1)N(C(=O)c1c[nH]cn1)c1ccc(C(C)(C)C)cc1 (stereo not drawn) [Compound 44]", "meas value": 3.6}
{"compound": "COc1ccc(C(C(=O)NCc2ccccc2)N(C(=O)Cn2nnc3ccccc32)c2ccc(NC(=O)C(C)C)cc2)cc1 (stereo not drawn) [Compound 13]", "meas value": 1.3}
{"compound": "CC(C)(C)c1ccc(N(C(=O)c2c[nH]cn2)C(C(=O)NC2CC2)c2cccnc2)cc1 (stereo not drawn) [Compound 46]", "meas value": 8.9}

Now for another entry.
Requested read-out IC50, target or system HKU5-3CL^pro (Bat coronavirus HKU5 (BtCoV) (BtCoV/HKU5/2004), UniProt P0C6W4), entry CC(C)C(=O)Nc1ccc(N(C(=O)Cn2cnc3ccccc32)C(C(=O)NCc2ccccc2)c2cccc(F)c2)cc1 (stereo not drawn) [Compound 19]
2.9

----------
# Test system: Ten CoV 3CL^pro's (FIPV-, PEDV-, NL63-, HKU1-, OC43-, SARS-, HKU4-, HKU5-, HKU9-, IBV-3CL^pro)
# Format: biochemical, coronaviruses (α-, β-, γ-CoV)
readout: Score (performance metric score)
Response field accepts a number only; no unit should be typed.

// known answers, use as guide
{"molecule": "CC(C)(C)NC(=O)C(c1cccnc1)N(C(=O)c1c[nH]cn1)c1ccc(C2CCCC2)cc1 (stereo not shown) [Compound 41]", "readout": "Score (performance metric score)", "meas value": 6.2}
{"molecule": "CC(C)(C)NC(=O)C(c1cccnc1)N(C(=O)c1c[nH]cn1)c1ccc(C2CC2)cc1 (stereo not shown) [Compound 39]", "readout": "Score (performance metric score)", "meas value": 7.6}
{"molecule": "CC(C)C(=O)Nc1ccc(N(C(=O)Cn2nnc3ccccc32)C(C(=O)NCc2ccccc2)c2cccc(F)c2)cc1 (stereo not shown) [Compound 1P, reference compound]", "readout": "Score (performance metric score)", "meas value": 5.7}
{"molecule": "COc1ccc(C(C(=O)NCc2ccccc2)N(C(=O)Cn2nnc3ccccc32)c2ccc(NC(=O)C(C)C)cc2)cc1 (stereo not shown) [Compound 13]", "readout": "Score (performance metric score)", "meas value": 6.4}
{"molecule": "CC(C)(C)NC(=O)C(c1ccsc1)N(C(=O)Cn1cnc2ccccc21)c1ccc(NC(=O)C2CC2)cc1 (stereo not shown) [Compound 27]", "readout": "Score (performance metric score)", "meas value": 11.0}

Value lookup for Score (performance metric score); key = CC(C)Cc1ccc(N(C(=O)c2c[nH]cn2)C(C(=O)NC(C)(C)C)c2cccnc2)cc1 (stereo not shown) [Compound 38]
4.5

Value lookup for Score (performance metric score); key = CC(C)(C)c1ccc(N(C(=O)c2c[nH]cn2)C(C(=O)NCc2ccccc2)c2cccnc2)cc1 (stereo not shown) [Compound 48]
3.5
